- subject-of-test: SARS-CoV-2 RBD (RBD-2) (SARS-CoV-2)
- test-summary: flow, HeLa-ACE2, mAb:RBD=4:1
measure: % inhibition of RBD binding to hACE2 (%)
Dear colleague, please return just the value in %, with no unit written.

Ask | Provide % inhibition of RBD binding to hACE2 value for the following binder: L12.bP10G07 (antibody, V domains shown, human IgG1) VH: EVQLVQSGAEVKKPGASVKVSCKASGYIYSGYYMHWVRQAPGQGLEWMGWISPDSGGTNYAQRFQGRVTMTRDTSTTTAYMELSRLRSDDTAMYYCARGPRYSGTYFDYWGQGTLVTVSS VL: QTVVTQPASVSGSPGQSITISCTGTSSDVGGYNYVSWYQQHPDKAPKLIIYDVSNRPSGVSNRFSGSKSGNTASLTISGLQAEDEAAYYCSSYTSSSTQVFGGGTKLTVL
Reply | 49.2

Ask | Give recorded % inhibition of RBD binding to hACE2. L12.cP08D07 (antibody, V domains shown, human IgG1) VH: QVQLQESGPGLVKPSETLSLTCTVSGGSISSSSYYWGWIRQPPGKGLEWIGSIYYSGSTYYNPSLKSRVTISVDTSKNQFSLKLSSVTAADTAVYYCARQGDCSTTSCAYDYWGQGTLVTVSS VL: SYELTQPPSVSVSPGQTARITCSGDALPKQYAYWYQQKPGQAPVLVIYKDSERPSGIPERFSGSSSGTTATLTISGVQAEDEADYYCQSADSSGTYLVVFGGGTKLAVL
Reply | -3.9

Ask | Quick one: give measured % inhibition of RBD binding to hACE2 for L12.cP09C07 (antibody, V domains shown, human IgG1) VH: QVQLVQSGAEVKKPGASVKVSCKASGYIYSGYFMHWVRQAPGQGLEWMGWISPDSGGANYAQTFQGRVTMTRDTSTTTAHMELSRLRSDDTAVYYCARGPRYSGTHFDYWGQGTLVTVSS VL: QSALTQPASVSGSPGQSLTISCTGTSSDVGGYNYVSWYQQHPDKAPKLMIYDVNNRPSGVSNRFSGSKSGSTASLTISGLQAEDEADYYCSSYAGSSTQVFGGGTKLIVL
Reply | 64.3
